What pKd was measured for each of the following?
- tested_on: TIM-3 (antigen; species and construct not stated for the assay) (UniProt Q8TDQ0 22-202, limits assumed)
- experiment: SPR (Biacore), run of May 1, 2014
To interpret pKd, take it as minus log10 of a concentration measured in moles per litre.

Query string: May I ask what pKd has been recorded for ABTIM3-hum08 (antibody, human IgG4 S228P, kappa, V domains shown, Humanized) VH: QVQLVQSGAEVKKPGASVKVSCKASGYTFTSYNMHWVRQAPGQGLEWIGDIYPGNGDTSYNQKFKGRATMTADKSTSTVYMELSSLRSEDTAVYYCARVGGAFPMDYWGQGTLVTVSS VL: DIVLTQSPDSLAVSLGERATINCRASESVEYYGTSLMQWYQQKPGQPPKLLIYAASNVESGVPDRFSGSGSGTDFTLTISSLQAEDVAVYFCQQSRKDPSTFGGGTKVEIKR ?
Result string: 9.51

Query string: Entry ABTIM3-hum01 (antibody, human IgG4 S228P, kappa, V domains shown, Humanized) VH: QVQLVQSGAEVKKPGASVKVSCKASGYTFTSYNMHWVRQAPGQGLEWIGDIYPGNGDTSYNQKFKGRATMTADKSTSTVYMELSSLRSEDTAVYYCARVGGAFPMDYWGQGTLVTVSS VL: DIVLTQSPDSLAVSLGERATINCRASESVEYYGTSLMQWYQQKPGQPPKLLIYAASNVESGVPDRFSGSGSGTDFTLTISSLQAEDVAVYYCQQSRKDPSTFGGGTKVEIKR has what pKd?
Result string: 9.94

Query string: What value of pKd has been reported for the following binder? ABTIM3-hum02 (antibody, human IgG4 S228P, kappa, V domains shown, Humanized) VH: QVQLVQSGAEVKKPGASVKVSCKASGYTFTSYNMHWVRQAPGQGLEWIGDIYPGSGDTSYNQKFKGRATMTADKSTSTVYMELSSLRSEDTAVYYCARVGGAFPMDYWGQGTLVTVSS VL: DIVLTQSPDSLAVSLGERATINCRASESVEYYGTSLMQWYQQKPGQPPKLLIYAASNVESGVPDRFSGSGSGTDFTLTISSLQAEDVAVYYCQQSRKDPSTFGGGTKVEIKR
Result string: 9.57

Query string: Entry ABTIM3-hum05 (antibody, human IgG4 S228P, kappa, V domains shown, Humanized) VH: QVQLVQSGAEVKKPGASVKVSCKASGYTFTSYNMHWIRQAPGQGLEWIGDIYPGSGDTSYNQKFKGRATLTADKSTSTVYMELSSLRSEDTAVYYCARVGGAFPMDYWGQGTLVTVSS VL: DIVLTQSPDSLAVSLGERATINCRASESVEYYGTSLMQWYQQKPGQPPKLLIYAASNVESGVPDRFSGSGSGTDFTLTISSLQAEDVAVYFCQQSRKDPSTFGGGTKVEIKR has what pKd?
Result string: 9.55

Query string: If you can, please state the reported pKd value of ABTIM3-hum07 (antibody, human IgG4 S228P, kappa, V domains shown, Humanized) VH: QVQLVQSGAEVKKPGASVKVSCKASGYTFTSYNMHWIRQAPGQGLEWIGDIYPGNGDTSYNQKFKGRATLTADKSTSTVYMELSSLRSEDTAVYYCARVGGAFPMDYWGQGTLVTVSS VL: DIVLTQSPDSLAVSLGERATINCRASESVEYYGTSLMQWYQQKPGQPPKLLIYAASNVESGVPDRFSGSGSGTDFTLTISSLQAEDVAVYYCQQSRKDPSTFGGGTKVEIKR .
Result string: 9.70

Query string: Given ABTIM3-hum06 (antibody, human IgG4 S228P, kappa, V domains shown, Humanized) VH: QVQLVQSGAEVKKPGASVKVSCKASGYTFTSYNMHWIRQAPGQGLEWIGDIYPGQGDTSYNQKFKGRATLTADKSTSTVYMELSSLRSEDTAVYYCARVGGAFPMDYWGQGTLVTVSS VL: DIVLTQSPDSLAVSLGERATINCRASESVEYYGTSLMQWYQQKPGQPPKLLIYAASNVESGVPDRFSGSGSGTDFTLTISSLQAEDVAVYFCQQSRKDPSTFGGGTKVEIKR , state its recorded pKd.
Result string: 9.67
